target: α4β1 integrin (Homo sapiens, UniProt P05556+P13612); construct: endogenous in cells; host or cells: Ramos cells; experiment: Inhibition of adhesion of calcein AM-labeled Ramos cells to CS1 (fibronectin) peptide-conjugated ovalbumin; format: cell-based; settings: Table 4; Ramos cell adhesion to CS1-conjugated ovalbumin, 30 minutes at 37° C.
Sequence (P13612 34-1032): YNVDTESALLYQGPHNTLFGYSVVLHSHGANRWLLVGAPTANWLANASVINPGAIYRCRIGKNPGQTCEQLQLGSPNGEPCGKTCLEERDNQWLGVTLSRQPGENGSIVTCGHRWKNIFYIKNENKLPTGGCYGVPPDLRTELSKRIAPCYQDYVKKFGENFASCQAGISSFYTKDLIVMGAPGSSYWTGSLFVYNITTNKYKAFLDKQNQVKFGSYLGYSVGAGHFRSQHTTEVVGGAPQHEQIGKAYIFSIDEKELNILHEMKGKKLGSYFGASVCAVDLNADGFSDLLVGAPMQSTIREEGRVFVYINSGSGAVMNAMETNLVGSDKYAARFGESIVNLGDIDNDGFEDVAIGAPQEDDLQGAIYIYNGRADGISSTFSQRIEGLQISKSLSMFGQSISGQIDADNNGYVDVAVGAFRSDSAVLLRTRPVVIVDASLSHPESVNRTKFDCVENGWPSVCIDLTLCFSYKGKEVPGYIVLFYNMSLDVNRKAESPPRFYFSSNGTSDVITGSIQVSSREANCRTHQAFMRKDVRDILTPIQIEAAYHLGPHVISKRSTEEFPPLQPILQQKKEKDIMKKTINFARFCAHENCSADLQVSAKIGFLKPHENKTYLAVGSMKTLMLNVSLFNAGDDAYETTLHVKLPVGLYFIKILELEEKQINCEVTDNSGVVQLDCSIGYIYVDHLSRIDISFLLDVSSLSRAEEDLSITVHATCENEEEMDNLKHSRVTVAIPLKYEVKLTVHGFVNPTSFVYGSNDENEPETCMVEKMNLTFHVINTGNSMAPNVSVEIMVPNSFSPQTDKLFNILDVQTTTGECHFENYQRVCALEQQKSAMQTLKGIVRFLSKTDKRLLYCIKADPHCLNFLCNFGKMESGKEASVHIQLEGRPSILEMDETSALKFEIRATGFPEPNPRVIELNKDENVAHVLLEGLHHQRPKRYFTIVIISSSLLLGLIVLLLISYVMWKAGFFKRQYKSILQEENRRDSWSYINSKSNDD
Sequence (P05556 21-798): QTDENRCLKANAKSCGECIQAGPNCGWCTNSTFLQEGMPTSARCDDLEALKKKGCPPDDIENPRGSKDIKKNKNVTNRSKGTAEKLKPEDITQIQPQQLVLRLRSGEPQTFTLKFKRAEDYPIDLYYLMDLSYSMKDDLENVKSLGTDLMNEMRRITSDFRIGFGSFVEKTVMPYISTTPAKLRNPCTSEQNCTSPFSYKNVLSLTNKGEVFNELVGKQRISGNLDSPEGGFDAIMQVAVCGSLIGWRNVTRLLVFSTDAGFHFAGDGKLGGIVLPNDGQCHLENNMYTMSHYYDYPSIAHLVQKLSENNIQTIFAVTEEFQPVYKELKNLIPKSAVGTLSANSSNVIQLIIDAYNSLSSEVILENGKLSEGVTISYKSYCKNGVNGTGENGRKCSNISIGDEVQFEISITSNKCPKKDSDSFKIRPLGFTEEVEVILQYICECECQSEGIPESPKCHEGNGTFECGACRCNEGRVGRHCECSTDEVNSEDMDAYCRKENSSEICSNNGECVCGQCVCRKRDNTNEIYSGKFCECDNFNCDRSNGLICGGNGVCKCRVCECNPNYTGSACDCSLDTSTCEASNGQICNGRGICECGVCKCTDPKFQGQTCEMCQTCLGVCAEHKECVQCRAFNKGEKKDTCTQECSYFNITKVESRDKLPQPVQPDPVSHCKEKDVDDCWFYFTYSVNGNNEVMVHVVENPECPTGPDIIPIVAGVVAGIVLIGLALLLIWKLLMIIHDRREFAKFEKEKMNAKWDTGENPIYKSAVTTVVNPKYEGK
pIC50: −log10 of the molar value.
The label depends only on pIC50: fulfilled if it is at least 7, not fulfilled if it is smaller.

Below, 10 compounds whose answers are already recorded.
CCCCC(C(=O)N[C@@H](CC(=O)O)c1cccc(OC(C)C)c1)n1cc(C)cc(Cc2ccccc2C)c1=O (stereo partly shown) :: fulfilled
CCCCC(C(=O)N[C@@H](CC(=O)O)c1cccc(OC(F)(F)F)c1)n1cc(C)cc(Cc2ccccc2)c1=O (stereo partly shown) :: fulfilled
CCCCC(C(=O)N[C@@H](CC(=O)O)c1cccc(CC(C)C)c1)n1cc(C)cc(Cc2ccccc2)c1=O (stereo partly shown) :: fulfilled
CCCCC(C(=O)N[C@H](Cc1ccccc1)C(=O)O)n1cc(C)cc(Cc2ccccc2)c1=O (stereo partly shown) :: not fulfilled
CCCCC(C(=O)N[C@@H](CC(=O)O)c1cccc(OC(C)C)c1)n1cc(C)cc(Cc2ccccc2Cl)c1=O (stereo partly shown) :: fulfilled
CCCCC(C(=O)N[C@@H](CC(=O)O)c1ccc2c(c1)OCO2)n1cccc(Cc2ccccc2)c1=O (stereo partly shown) :: fulfilled
CCCCC(C(=O)N[C@@H](CC(=O)O)c1ccc(C)c(OC(C)C)c1)n1cc(C)cc(Cc2ccccc2)c1=O (stereo partly shown) :: fulfilled
CCCCC(C(=O)N[C@@H](CC(=O)O)c1ccc(Cl)c(OC(C)C)c1)n1cc(C)cc(Cc2ccccc2)c1=O (stereo partly shown) :: fulfilled
CCCCC(C(=O)N[C@@H](CC(=O)O)c1ccc(-c2ccc(C)cc2)cc1)n1cc(C)cc(Cc2ccccc2)c1=O (stereo partly shown) :: not fulfilled
CCCCC(C(=O)N[C@@H](CC(=O)O)c1cccc(N(CC)CC)c1)n1cc(C)cc(Cc2ccccc2)c1=O (stereo partly shown) :: fulfilled

Please check the record CCCCC(C(=O)N[C@@H](CC(=O)O)c1cc(C)cc(C)c1)n1cc(C)cc(Cc2ccccc2)c1=O (stereo partly shown) and state if its pIC50 is at or above 7.
fulfilled

Please check the record CCCCC(C(=O)N[C@@H](CC(=O)O)c1cccc(OCCC)c1)n1cc(C)cc(Cc2cccc(Cl)c2)c1=O (stereo partly shown) and state if its pIC50 is at or above 7.
fulfilled

Please check the record CCCCC(C(=O)N[C@@H](CC(=O)O)c1cc(C)c(OC)cc1C)n1cc(C)cc(Cc2ccccc2)c1=O (stereo partly shown) and state if its pIC50 is at or above 7.
not fulfilled

Please check the record CCCCC(C(=O)N[C@@H](CC(=O)O)c1cccc(OC(C)C)c1)n1cc(C)cc(Cc2c(Cl)cccc2Cl)c1=O (stereo partly shown) and state if its pIC50 is at or above 7.
not fulfilled

---

target: α4β1 integrin (Homo sapiens, UniProt P05556+P13612); construct: endogenous in cells; host or cells: Ramos cells; experiment: Inhibition of adhesion of calcein AM-labeled Ramos cells to CS1 (fibronectin) peptide-conjugated ovalbumin; assay type: cell-based; settings: Table 4; Ramos cell adhesion to CS1-conjugated ovalbumin, 30 minutes at 37° C.
Kindly state IC50 for each of the entries shown.
Give bare numbers, in nM.

Dear reader, for each entry below, please note its IC50.
1. CCCCC(C(=O)N[C@@H](CC(=O)O)c1ccc2c(c1)CCC2)n1cc(C)cc(Cc2ccccc2)c1=O (stereo partly shown)
2. CCCCC(C(=O)N[C@@H](CC(=O)O)c1ccc(CC)cc1)n1cc(C)cc(Cc2ccccc2)c1=O (stereo partly shown)
3. CCCCC(C(=O)N[C@@H](CC(=O)O)c1ccc(C)cc1)n1cc(C)cc(Cc2ccc3ccccc3c2)c1=O (stereo partly shown)
4. CCCCC(C(=O)N[C@@H](CC(=O)O)c1ccc2cc(OC)ccc2c1)n1cc(C)cc(Cc2ccccc2)c1=O (stereo partly shown)

1: 63; 2: 40; 3: 400; 4: 40
